Assay explanation: Photostability, percentage remaining undegraded under illumination or in the dark
Condition set: percentage remaining undegraded after 24 hours illumination
Listed below: Photostability 24 hours values for each entry.
The answer is to be given in %; state only the numeric part.

In the examples that follow, each entry is paired with its recorded Photostability 24 hours.
Molecule	Photostability 24 hours (%)
Cc1cc2cc(N3CC[C@@]4(O)C(=O)c5cc(F)c(C)cc5N=C34)ccc2o1 [BPN-0026726]	24.1
CCc1cc2c(s1)N=C1N(c3ccc(Cl)cc3)CC[C@@]1(O)C2=O [BPN-0026770]	92.9
COc1cccc(N2CC[C@@]3(O)C(=O)c4cc(F)c(C)cc4N=C23)c1 [BPN-0026618]	17.2

Exercise: Any idea what Photostability 24 hours was measured for Cc1cc2c(cc1C)C(=O)[C@]1(O)CCN(c3ccc4nnccc4c3)C1=N2 [BPN-0027241] ?
Solution: 87.0

Exercise: Any idea what Photostability 24 hours was measured for Cc1ccc2c(c1)C(=O)[C@]1(O)CCN(c3cccc(Br)c3)C1=N2 [BPN-0025240] ?
Solution: 28.6
